Assay: Published PK data in patients
Conditions: in vivo, oral; human, 0.75 mg/kg, extrapolated assuming linear increase from the lower dose

{"Smi": "C[C@]12C=CC(=O)C=C1CC[C@@H]1[C@@H]2[C@@H](O)C[C@@]2(C)[C@H]1CC[C@]2(O)C(=O)CO", "Cmax": "~705 ng/mL"}

====

Assay: in vivo
Conditions: C57BL/10, mouse, plasma, oral, 5 mg/kg

{"Smi": "C[C@@H]1C[C@H]2[C@@H]3CCC4=CC(=O)C=C[C@]4(C)C3=CC[C@]2(C)[C@@]1(O)C(=O)CO", "Cmax [ng/mL]": 818}

====

Assay: Published PK data in patients
Conditions: in vivo, oral; human, 0.75 mg/kg, extrapolated assuming linear increase from the lower dose; read-out: AUC (Day 1)

{"Smi": "C[C@]12C=CC(=O)C=C1CC[C@@H]1[C@@H]2[C@@H](O)C[C@@]2(C)[C@H]1CC[C@]2(O)C(=O)CO", "AUC": "~7070 ng·h/mL"}
